Test system: L. mexicana promastigotes
Assay: MTT viability assay against L. mexicana promastigotes
Assay type: cell-based, Leishmania mexicana
Conditions: CC50 HepG2 hepatocytes/IC50 L. mexicana
Friendly reminder: L. mexicana Promastigote SI vs. Hepatocytes below 2 is TRUE, at or above is FALSE.

Cc1nn(-c2ccccc2)c(O)c1C(c1cccc([N+](=O)[O-])c1)c1c(C)nn(-c2ccccc2)c1O :: FALSE
CSc1ccc(C(c2c(C)nn(-c3ccccc3)c2O)c2c(C)nn(-c3ccccc3)c2O)cc1 :: TRUE
Cc1nn(-c2ccccc2)c(O)c1C(c1cccc(C(F)(F)F)c1)c1c(C)nn(-c2ccccc2)c1O :: FALSE
Cc1nn(-c2ccccc2)c(O)c1C(c1cccc(F)c1)c1c(C)nn(-c2ccccc2)c1O :: TRUE
COc1ccccc1C(c1c(C)nn(-c2ccccc2)c1O)c1c(C)nn(-c2ccccc2)c1O :: FALSE

L. mexicana Promastigote SI vs. Hepatocytes strictly < 2 for this compound? Cc1nn(-c2ccccc2)c(O)c1C(c1ccc([N+](=O)[O-])cc1)c1c(C)nn(-c2ccccc2)c1O
TRUE

L. mexicana Promastigote SI vs. Hepatocytes strictly < 2 for this compound? Cc1nn(-c2ccccc2)c(O)c1C(c1ccccc1[N+](=O)[O-])c1c(C)nn(-c2ccccc2)c1O
TRUE

###

Reported CC50 at 48 h values for a set of compounds
Test: MTT cytotoxicity assay, murine macrophages
Type: cell-based
Details: mouse, RAW 264.7 macrophage cells, RAW 264.7, 48 h
Protocol: Murine macrophages (cell line RAW 264.7, ATCC® TIB-71™) were grown in Dulbecco’s Modified Eagle Medium (DMEM) (Gibco, Invitrogen, Waltham, MA, USA) supplemented with 10% fetal bovine serum (FBS) (Eurobio) and 100 IU/mL penicillin + 100 µg/mL streptomycin (Gibco), at 37 °C, in an atmosphere containing 5% CO2. […] For both cell lines, the viability was determined using the MTT assay as described before for leishmanicidal activity assessment, with some variations. […]
A number alone suffices; assume µM.

Example compounds with recorded CC50 at 48 h:
COC(=O)c1ccc(C(c2c(C)nn(-c3ccccc3)c2O)c2c(C)nn(-c3ccccc3)c2O)cc1 [Compound 2q] :: 111
Cc1nn(-c2ccccc2)c(O)c1C(c1cccc(C(F)(F)F)c1)c1c(C)nn(-c2ccccc2)c1O [Compound 2w] :: 61

State its CC50 at 48 h: Cc1nn(-c2ccccc2)c(O)c1C(c1cc(O)ccc1[N+](=O)[O-])c1c(C)nn(-c2ccccc2)c1O [Compound 2h]
108

###

Test system: L. mexicana promastigotes
Assay: MTT viability assay against L. mexicana promastigotes
Type: cell-based, Leishmania mexicana
Details: Leishmania mexicana, 48 h, read-out: L. mexicana Promastigote IC50, promastigotes, 48 h, MTT
MEASURED_QUANTITY: IC50

Cc1nn(-c2ccccc2)c(O)c1C(c1cccc(F)c1)c1c(C)nn(-c2ccccc2)c1O :: 11 µM

State its IC50: Cc1nn(-c2ccccc2)c(O)c1C(c1ccccc1)c1c(C)nn(-c2ccccc2)c1O
32 µM

###

Test: MTT cytotoxicity assay, murine macrophages
Format: cell-based
Conditions: mouse, RAW 264.7 macrophage cells, RAW 264.7, 48 h
Friendly reminder: CC50 at 48 h below 100 µM is rule met, at or above is rule not met.

Cc1nn(-c2ccccc2)c(O)c1C(c1ccc([N+](=O)[O-])cc1)c1c(C)nn(-c2ccccc2)c1O :: rule not met

CC50 at 48 h strictly < 100 µM for this molecule? Cc1nn(-c2ccccc2)c(O)c1C(c1ccccc1)c1c(C)nn(-c2ccccc2)c1O
rule not met

CC50 at 48 h strictly < 100 µM for this molecule? Cc1nn(-c2ccccc2)c(O)c1C(c1ccc(O)c(O)c1)c1c(C)nn(-c2ccccc2)c1O
rule met

CC50 at 48 h strictly < 100 µM for this molecule? Cc1nn(-c2ccccc2)c(O)c1C(c1ccc(OC(F)(F)F)cc1)c1c(C)nn(-c2ccccc2)c1O
rule met

CC50 at 48 h strictly < 100 µM for this molecule? COc1ccccc1C(c1c(C)nn(-c2ccccc2)c1O)c1c(C)nn(-c2ccccc2)c1O
rule met

CC50 at 48 h strictly < 100 µM for this molecule? Cc1nn(-c2ccccc2)c(O)c1C(c1cccc(F)c1)c1c(C)nn(-c2ccccc2)c1O
rule not met

CC50 at 48 h strictly < 100 µM for this molecule? Cc1nn(-c2ccccc2)c(O)c1C(c1cccc(O)c1)c1c(C)nn(-c2ccccc2)c1O
rule not met

CC50 at 48 h strictly < 100 µM for this molecule? Cc1nn(-c2ccccc2)c(O)c1C(c1ccccc1[N+](=O)[O-])c1c(C)nn(-c2ccccc2)c1O
rule met

CC50 at 48 h strictly < 100 µM for this molecule? Cc1nn(-c2ccccc2)c(O)c1C(c1cccc([N+](=O)[O-])c1)c1c(C)nn(-c2ccccc2)c1O
rule met

CC50 at 48 h strictly < 100 µM for this molecule? Cc1nn(-c2ccccc2)c(O)c1C(c1ccc(F)cc1)c1c(C)nn(-c2ccccc2)c1O
rule met

CC50 at 48 h strictly < 100 µM for this molecule? COc1ccc(C(c2c(C)nn(-c3ccccc3)c2O)c2c(C)nn(-c3ccccc3)c2O)cc1O
rule not met
